Where do these numbers come from? They come from patent US20250090520A1.

Measured MIC by item
tested on: C. albicans K-1; experiment: In vitro MIC susceptibility testing, broth microdilution; assay type: cell-based, Candida albicans; details: Candida albicans, K1, 24 h, read-out: MIC C. albicans K-1
Please respond with the number in µg/mL and leave the unit unwritten.

Would you please look over these solved cases?
[[record]]
compound = "C/C=C/C=C/C=C/C(=O)O[C@@H]1C=CC[C@H]2C(=NCCCNC)c3c(O)c4c5c(c3O[C@H]12)OCO[C@@H]5C[C@@H]1C(=O)c2cc(C)[nH]c(=O)c2C(=O)[C@]41O"
recorded_number = 1

[[record]]
compound = "C/C=C/C=C/C=C/C(=O)O[C@@H]1C=CC[C@H]2/C(=N/C)c3c(O)c4c5c(c3O[C@H]12)OCO[C@@H]5C[C@@H]1C(=O)c2cc(C)[nH]c(=O)c2C(=O)[C@]41O"
recorded_number = 1

[[record]]
compound = "C/C=C/C=C/C=C/C(=O)O[C@@H]1C=CC[C@H]2/C(=N/CCN(C)C)c3c(O)c4c5c(c3O[C@H]12)OCO[C@@H]5C[C@@H]1C(=O)c2cc(C)[nH]c(=O)c2C(=O)[C@]41O"
recorded_number = 0.13

[[record]]
compound = "C/C=C/C=C/C=C/C(=O)O[C@@H]1C=CC[C@H]2C(=NCCN3CCS(=O)(=O)CC3)c3c(O)c4c5c(c3O[C@H]12)OCO[C@@H]5C[C@@H]1C(=O)c2cc(C)[nH]c(=O)c2C(=O)[C@]41O"
recorded_number = 0.75

[[record]]
compound = "C/C=C/C=C/C=C/C(=O)O[C@@H]1C=CC[C@H]2/C(=N/CCN3CCCCC3)c3c(O)c4c5c(c3O[C@H]12)OCO[C@@H]5C[C@@H]1C(=O)c2cc(C)[nH]c(=O)c2C(=O)[C@]41O"
recorded_number = 0.25

[[record]]
compound = "C/C=C/C=C/C=C/C(=O)O[C@@H]1C=CC[C@H]2C(=NCCCCCN3CCOCC3)c3c(O)c4c5c(c3O[C@H]12)OCO[C@@H]5C[C@@H]1C(=O)c2cc(C)[nH]c(=O)c2C(=O)[C@]41O"
recorded_number = 1


Continue with the next compound.
In: State its MIC: C/C=C/C=C/C=C/C(=O)O[C@@H]1C=CC[C@H]2/C(=N\C(C)CN3CCOCC3)c3c(O)c4c5c(c3O[C@H]12)OCO[C@@H]5C[C@@H]1C(=O)c2cc(C)[nH]c(=O)c2C(=O)[C@]41O (stereo partly drawn)
Out: 0.5

###

test system: C. albicans K-1; experiment: In vitro MIC susceptibility testing, broth microdilution; type: cell-based, Candida albicans; conditions: Candida albicans, K1, 24 h, read-out: MIC C. albicans K-1
observation_type: MIC (µg/mL)
Please respond with the number in µg/mL and leave the unit unwritten.

[[record]]
smiles_notation = "C=CC/N=C1/c2c(O)c3c4c(c2O[C@@H]2[C@H](OC(=O)/C=C/C=C/C=C/C)C=CC[C@@H]12)OCO[C@@H]4C[C@@H]1C(=O)c2cc(C)[nH]c(=O)c2C(=O)[C@]31O"
display_unit = "µg/mL"
recorded_number = 2


Continue with the next compound.
In: State its MIC: C/C=C/C=C/C=C/C(=O)O[C@@H]1C=CC[C@H]2C(=NCCN3CCCC3)c3c(O)c4c5c(c3O[C@H]12)OCO[C@@H]5C[C@@H]1C(=O)c2cc(C)[nH]c(=O)c2C(=O)[C@]41O
Out: 0.5

###

test system: C. auris B 11211; assay: In vitro MIC susceptibility testing, broth microdilution; assay type: cell-based, Candida auris; conditions: Candidozyma auris, B11211; multidrug-resistant clinical isolate; RPMI medium, 33° C., 24 hours; lowest concentration that inhibited visible growth; read-out: MIC C. auris B11211
Measured MIC by item
Please respond with the number in µg/mL and leave the unit unwritten.

Would you please look over these solved cases?
[[record]]
smiles_notation = "C/C=C/C=C/C=C/C(=O)O[C@@H]1C=CC[C@H]2/C(=N/Cc3ccccc3)c3c(O)c4c5c(c3O[C@H]12)OCO[C@@H]5C[C@@H]1C(=O)c2cc(C)[nH]c(=O)c2C(=O)[C@]41O"
display_unit = "µg/mL"
recorded_number = 4

[[record]]
smiles_notation = "C/C=C/C=C/C=C/C(=O)O[C@@H]1C=CC[C@H]2C(=NCCN3CCN(C)CC3)c3c(O)c4c5c(c3O[C@H]12)OCO[C@@H]5C[C@@H]1C(=O)c2cc(C)[nH]c(=O)c2C(=O)[C@]41O"
display_unit = "µg/mL"
recorded_number = 0.03


Continue with the next molecule.
In: State its MIC: C/C=C/C=C/C=C/C(=O)O[C@@H]1C=CC[C@H]2C(=NCCCN3CCOCC3)c3c(O)c4c5c(c3O[C@H]12)OCO[C@@H]5C[C@@H]1C(=O)c2cc(C)[nH]c(=O)c2C(=O)[C@]41O
Out: 0.63
